# ASSAY_REMARKS: Cytotoxicity, LDH release assay, primary hepatocytes
# MEASUREMENT_PARAMETERS: human, primary hepatocytes
PROPERTY_NAME: CC50

q: Consider the compound shown here: `N#C[C@]1(CO)/C(=C\F)[C@@H](n2cnc3c(=O)[nH]c(N)nc32)C[C@@H]1O` What is its recorded CC50?
a: > 100 µM

====

# Test system: HBVWT^D1
# ASSAY_REMARKS: microbe, parasite or virus in culture
# MEASUREMENT_PARAMETERS: Hepatitis B virus, HepG2.2.15, read-out: IC50^qPCR_cell
PROPERTY_NAME: pIC50
Units for pIC50: none; it is -log10 of a concentration expressed in mol/L.

* N#C[C@]1(CO)/C(=C\F)[C@@H](n2cnc3c(=O)[nH]c(N)nc32)C[C@@H]1O | 8.74

q: Hello, I am looking for reported pIC50 with HBVWT^D1 for `N#C[C@]1(CO)/C(=C/F)[C@@H](n2cnc3c(=O)[nH]c(N)nc32)C[C@@H]1O` . Could you help?
a: 6.38

====

# ASSAY_REMARKS: Cytotoxicity, MTT assay, Huh7 cells
# Format: cell-based
# MEASUREMENT_PARAMETERS: human, Huh7 cells
PROPERTY_NAME: CC50

q: Which CC50 is reported for this molecule? `N#C[C@]1(CO)/C(=C\F)[C@@H](n2cnc3c(=O)[nH]c(N)nc32)C[C@@H]1O`
a: > 500 µM

====

# ASSAY_REMARKS: Cytotoxicity, LDH release assay, primary hepatocytes
# MEASUREMENT_PARAMETERS: human
PROPERTY_NAME: CC50 (µM)
// return numeric value only (unit: µM, not printed)

q: What measured CC50 goes with CC(C)OC(=O)[C@H](C)N[P@](=O)(CO[C@H](C)Cn1cnc2c(N)ncnc21)Oc1ccccc1 [TAF, tenofovir alafenamide, reference compound] ?
a: 97

====

# System: HBVWT^C2
# ASSAY_REMARKS: Anti-HBV qPCR assay in HBV-exposed PXB-cells
# Type: cell-based, Hepatitis B virus
# MEASUREMENT_PARAMETERS: Hepatitis B virus, read-out: IC50^qPCR_cell
Catalogue of compounds with associated pIC50
API: returns pIC50 as number; meaning -log10 of concentration in mol/L.

• CC(C)OC(=O)[C@H](C)N[P@](=O)(CO[C@H](C)Cn1cnc2c(N)ncnc21)Oc1ccccc1 [TAF, tenofovir alafenamide, reference compound] = 9.23

q: Looking for the measured pIC50 of `N#C[C@]1(CO)/C(=C\F)[C@@H](n2cnc3c(=O)[nH]c(N)nc32)C[C@@H]1O` , can you help?
a: 11.00

q: Same lookup for `C=C1[C@H](CO)[C@@H](O)C[C@@H]1n1cnc2c(=O)[nH]c(N)nc21` , please.
a: 9.89

====

# ASSAY_REMARKS: Cytotoxicity, Neutral Red staining assay, primary hepatocytes
# MEASUREMENT_PARAMETERS: human, primary hepatocytes
PROPERTY_NAME: CC50

q: GET /values?readout=CC50&item= `N#C[C@]1(CO)/C(=C\F)[C@@H](n2cnc3c(=O)[nH]c(N)nc32)C[C@@H]1O`
a: > 100 µM

====

# ASSAY_REMARKS: Cytotoxicity, MTT assay, HepG2 cells
# Assay type: cell-based
# MEASUREMENT_PARAMETERS: human, HepG2 cells
PROPERTY_NAME: CC50 (µM)
Field: numeric (µM). Do not append units.

q: Reported CC50 for `N#C[C@]1(CO)/C(=C\F)[C@@H](n2cnc3c(=O)[nH]c(N)nc32)C[C@@H]1O` : what is it?
a: 115

====

# ASSAY_REMARKS: Cytotoxicity, MTT assay, PXB-cells
# Type: cell-based
# MEASUREMENT_PARAMETERS: human, PXB-cells
PROPERTY_NAME: CC50

q: Entry under review: `N#C[C@]1(CO)/C(=C\F)[C@@H](n2cnc3c(=O)[nH]c(N)nc32)C[C@@H]1O` . Reported CC50?
a: > 500 µM

====

# ASSAY_REMARKS: Cytotoxicity, MTT assay, PXB-cells
# Type: cell-based
# MEASUREMENT_PARAMETERS: human
PROPERTY_NAME: CC50 (µM)
Kindly provide the numeric value in µM only, without the unit symbol.

q: Which measured CC50 value corresponds to CC(C)OC(=O)[C@H](C)N[P@](=O)(CO[C@H](C)Cn1cnc2c(N)ncnc21)Oc1ccccc1 [TAF, tenofovir alafenamide, reference compound] ?
a: 8.2

====

# ASSAY_REMARKS: Cytotoxicity, MTT assay, HepG2 cells
# Format: cell-based
# MEASUREMENT_PARAMETERS: human
PROPERTY_NAME: CC50 (µM)
Value expressed in µM; do not type the unit.

q: What CC50 value was documented for this molecule, CC(C)OC(=O)[C@H](C)N[P@](=O)(CO[C@H](C)Cn1cnc2c(N)ncnc21)Oc1ccccc1 [TAF, tenofovir alafenamide, reference compound] ?
a: 22
